PROTOCOL_NOTES: Solubility in water (laser nephelometry)
Format: physicochemical
CONDITION_PARAMETERS: n=3
ASSAY_READOUT: solubility at 2 h

>>> experimental_value("CN(C)c1ccc(/C=C/c2cc(-c3ccc(Br)cc3)cc(-c3ccc(Br)cc3)[o+]2)cc1 [6jc48-1]")
"> 50 µg/mL"

* * *

Tested on: E. aerogenes ATCC 13048
PROTOCOL_NOTES: Antibacterial activity (MIC, broth dilution)
Assay type: cell-based
CONDITION_PARAMETERS: CLSI
ASSAY_READOUT: Antibacterial activity (MIC) E. aerogenes ATCC 13048 (µg/mL)

>>> experimental_value("Cc1ccc(-c2cc(/C=C/c3cc4c5c(c3)CCCN5CCC4)[o+]c(-c3ccc(C)cc3)c2)cc1.F[B-](F)(F)F")
32
>>> experimental_value("CN1/C(=C/C=C/c2cc(-c3ccccc3)cc(-c3ccccc3)[o+]2)C(C)(C)c2ccccc21 [BAS-00127538, reference compound]")
16

* * *

PROTOCOL_NOTES: Tolerability in mice (maximum tolerated dose, clinical observations)
CONDITION_PARAMETERS: C57BL/6J, mouse, in vivo, ip, 100 mg/kg, intraperitoneal, read-out: Dose safely administered intraperitoneally (preliminary maximum tolerated dose studies)
ASSAY_READOUT: MTD

>>> experimental_value("CN(C)c1ccc(/C=C/c2cc(-c3ccc(Br)cc3)cc(-c3ccc(Br)cc3)[o+]2)cc1 [6jc48-1]")
"≥ 100 mg/kg"

* * *

System: E. faecium EF1509 (VRE)
PROTOCOL_NOTES: Antibacterial activity (MIC, broth dilution)
Type: cell-based
CONDITION_PARAMETERS: CLSI, in µg/mL
ASSAY_READOUT: Antibacterial activity (MIC) E. faecium EF1509 (VRE)

>>> experimental_value("CN(C)c1ccc(/C=C/C=C/c2cc(-c3ccc(Cl)cc3)cc(-c3ccc(Cl)cc3)[o+]2)cc1.F[B-](F)(F)F")
64
>>> experimental_value("CN(C)c1ccc(/C=C/c2cc(-c3ccc(Br)cc3)cc(-c3ccc(Br)cc3)[o+]2)cc1")
2.828
>>> experimental_value("CCc1ccc(-c2cc(/C=C/c3cn(C)c4ccccc34)[o+]c(-c3ccc(CC)cc3)c2)cc1.F[B-](F)(F)F")
4
>>> experimental_value("CCc1ccc(-c2cc(/C=C/C=C/c3ccc(N(C)C)cc3)[o+]c(-c3ccc(CC)cc3)c2)cc1.F[B-](F)(F)F")
5.66
>>> experimental_value("CN(C)c1ccc(/C=C/C=C/c2cc(-c3ccccc3)cc(-c3ccccc3)[o+]2)cc1.F[B-](F)(F)F")
4
>>> experimental_value("CN(C)c1ccc(/C=C/C=C/c2cc(-c3ccc(Br)cc3)cc(-c3ccc(Br)cc3)[o+]2)cc1.F[B-](F)(F)F")
4
>>> experimental_value("Cc1cc(/C=C/C=C/c2ccc(N(C)C)cc2)cc(C)[o+]1.F[B-](F)(F)F")
">=64"

* * *

Test system: E. faecium F118 (VRE)
PROTOCOL_NOTES: Antibacterial activity (MIC, broth dilution)
Type: cell-based
CONDITION_PARAMETERS: CLSI, in µg/mL
ASSAY_READOUT: Antibacterial activity (MIC) E. faecium F118 (VRE)

>>> experimental_value("CN(C)c1ccc(/C=C/c2cc(-c3ccc(Br)cc3)cc(-c3ccc(Br)cc3)[o+]2)cc1")
5.657
>>> experimental_value("Cn1cc(/C=C/c2cc(-c3ccccc3)cc(-c3ccccc3)[o+]2)c2ccccc21.F[B-](F)(F)F")
8
>>> experimental_value("Brc1ccc(-c2cc(/C=C/c3cc4c5c(c3)CCCN5CCC4)[o+]c(-c3ccc(Br)cc3)c2)cc1.F[B-](F)(F)F")
11.31
>>> experimental_value("Cn1cc(/C=C/c2cc(-c3ccc(C(C)(C)C)cc3)cc(-c3ccc(C(C)(C)C)cc3)[o+]2)c2ccccc21.F[B-](F)(F)F")
11.31
